pIC50 values for the compounds below.
System: KRAS PDC tumor spheroids (HUVEC+MSC), viability;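 note: spheroids exposed to compounds for seven days before readout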
PROTOCOL_DESCRIPTION: Anticancer human tumor 254851-301-R-J1-PDC patient-derived colon carcinoma cell line growth inhibition [KRAS2]
CONDITION_DESCRIPTION: curve of first compound; second compound 0.316 µM
pIC50: −log10 of the molar value.

{"columns": ["COMPOUND", "READOUT_RELATION", "pIC50"],
 "data": [
  ["CC(=O)Nc1cccc(-n2c(=O)n(C3CC3)c(=O)c3c(Nc4ccc(I)cc4F)n(C)c(=O)c(C)c32)c1 + COc1cc2nc(C)nc(NC(C)c3cc(N)cc(C(F)(F)F)c3)c2cc1OC1CCOC1", "=", 8.39],
  ["COC(=O)c1ccc2c(C(=Nc3ccc(N(C)C(=O)CN4CCN(C)CC4)cc3)c3ccccc3)c(O)[nH]c2c1 + CNCc1ccccc1-c1csc(C(C)Nc2nc(C)nc3cc(OC)c(OC)cc23)c1", "<", 5.00],
  ["CC1(C)CCC(CN2CCN(c3ccc(C(=O)NS(=O)(=O)c4ccc(NCC5CCOCC5)c([N+](=O)[O-])c4)c(Oc4cnc5[nH]ccc5c4)c3)CC2)=C(c2ccc(Cl)cc2)C1 + COc1cc2nc(C)nc(NC(C)c3cc(N)cc(C(F)(F)F)c3)c2cc1OC1CCOC1", "<", 5.00],
  ["CCN1CCN(Cc2ccc(Nc3ncc(F)c(-c4cc(F)c5nc(C)n(C(C)C)c5c4)n3)nc2)CC1 + COc1cc2nc(C)nc(NC(C)c3cc(N)cc(C(F)(F)F)c3)c2cc1OC1CCOC1", "=", 6.24],
  ["CCN1CCN(Cc2ccc(Nc3ncc(F)c(-c4cc(F)c5nc(C)n(C(C)C)c5c4)n3)nc2)CC1 + CC1OCC2(CCN(c3cnc(Sc4ccnc(N)c4Cl)c(N)n3)CC2)C1N", "=", 6.32],
  ["CCNC(=O)CC1N=C(c2ccc(Cl)cc2)c2cc(OC)ccc2-n2c(C)nnc21 (stereo not drawn) + COc1cc2nc(C)nc(NC(C)c3cc(N)cc(C(F)(F)F)c3)c2cc1OC1CCOC1", "=", 5.60],
  ["CN(C)C/C=C/C(=O)Nc1cc2c(Nc3ccc(F)c(Cl)c3)ncnc2cc1O[C@H]1CCOC1 + CC1OCC2(CCN(c3cnc(Sc4ccnc(N)c4Cl)c(N)n3)CC2)C1N", "<", 7.00],
  ["O=C(c1cc(Cc2n[nH]c(=O)c3ccccc23)ccc1F)N1CCN(C(=O)C2CC2)CC1 + C=CC(=O)N1CCN(c2nc(OCC3CCCN3C)nc3c2CCN(c2cccc4cccc(C)c24)C3)CC1CC#N", "<", 5.00]
]}
